# GI50 measurements, system: U251
Please state the figure in nM; there is no need to write the unit.

In the examples that follow, each entry is paired with its recorded GI50.
O=C(Cc1ccc(/C=C/C(=O)c2ncc[nH]2)cc1)Nc1ccc(Cl)cc1 [Compound 25]
1020
O=C(Cc1ccc(/C=C/C(=O)c2ncc[nH]2)cc1)Nc1ccc(C(F)(F)F)cc1 [Compound 24]
1220
O=C(Cc1ccc(/C=C/C(=O)c2ncc[nH]2)cc1)Nc1ccc(F)cc1 [Compound 22]
1200

Requested read-out: GI50. Entry: Cn1ccnc1C(=O)/C=C/c1ccc(CC(=O)Nc2ccccc2)cc1 [Compound 27]
1570

###

# GI50 measurements, system: HCT15
Please state the figure in nM; there is no need to write the unit.

O=C(Cc1ccc(/C=C/C(=O)c2ncc[nH]2)cc1)Nc1ccc(Cl)cc1
879
O=C(Cc1ccc(/C=C/C(=O)c2ncc[nH]2)cc1)Nc1ccc(C(F)(F)F)cc1
1040
Cc1ccc(NC(=O)Cc2ccc(/C=C/C(=O)c3ncc[nH]3)cc2)cc1
2010
O=C(Cc1ccc(/C=C/C(=O)c2ncc[nH]2)cc1)Nc1ccc(F)cc1
1150
Cn1ccnc1C(=O)/C=C/c1ccc(CC(=O)Nc2ccccc2)cc1
1250
Cn1ccnc1C(=O)/C=C/c1ccc(CC(=O)Nc2ccc(Cl)cc2)cc1
999
CCn1ccnc1C(=O)/C=C/c1ccc(CC(=O)Nc2ccc(F)cc2)cc1
1930

Next:
Requested read-out: GI50. Entry: `Cn1ccnc1C(=O)/C=C/c1ccc(CC(=O)Nc2ccc(F)cc2)cc1`
1290
